# procedure.text: qHTS of pediatric cancer cell lines to identify multiple opportunities for drug repurposing: Primary screen for NB1643 cells (AID 1347099); further: nearly all actives have a fitted effect of over 50% in size
# test.conditions: NB1643 neuroblastoma viability, CellTiter-Glo luminescence, 48 h; series mostly up to 46 µM
Inconclusive results are not listed. Activity calls are given as the source filed them. The call rests on the fitted dose curve; in most records, active means well fitted cell-killing curve with a large enough effect; inconclusive means small, poorly fitted or top-dose-only effect; inactive means no such curve, though single readings can be large or run the other way.
Answer with one of the outcomes given here: active, inactive

Which result was noted for this compound in the test: CCCCC1C(=O)N(c2ccccc2)N(c2ccc(O)cc2)C1=O (stereo not drawn)
active

What was the test verdict on CC(N)C(=O)OC(C)(C)Cc1ccc(Cl)cc1 (stereo not drawn) ?
inactive

In this assay, the call recorded for CC(=O)SCC(CC(=O)c1ccc(C)cc1)C(=O)O (stereo not drawn) was what?
inactive

I would be grateful if you could indicate the recorded call for O=C(CCN1CCN(CCO)CC1)N1c2ccccc2Sc2ccc(C(F)(F)F)cc21 .
inactive

Please share the test call associated with COc1ccnc2c1CCCCC2S(=O)c1nc2ccccc2[nH]1 (stereo not drawn) .
inactive

What outcome does the record of this test show for CC(C(=O)O)c1ccc(C(=O)c2cccs2)cc1 (stereo not drawn) ?
inactive

Status in this test for O=C(O)Cc1ccc(-c2ccccc2)cc1 ?
inactive

Entry O=C(O)c1ccccc1Nc1cccc(C(F)(F)F)c1 : call = ?
inactive

Test call for this compound, please: c1ccc(CCNc2nc(-c3ccccc3)cs2)cc1
inactive

Assay result, entry O=C(/C=C/c1ccccc1)NCCO — outcome?
inactive

Please state the recorded outcome for this compound: C=CCCCCCCCCC(=O)O
inactive

What did this assay record as the result for c1ccc2sc(SSc3nc4ccccc4s3)nc2c1 ?
inactive

Hi, sorry to bother you, what did the test record for NC(=O)C(c1ccccc1)(c1ccccc1)[C@@H]1CCN(CCc2ccc3c(c2)CCO3)C1 ?
inactive

---

# procedure.text: Validation qHTS assay for inhibitors of Activation Induced Cytidine Deaminase (AID): UDG Counterscreen signal (AID 1347427)
# test.conditions: biochemical UDG counterscreen, fluorescence signal; series mostly up to 115 µM
Activity calls are given as the source filed them. Calls follow the shape of the dose curve; as a rule, active = well fitted curve in the direction sought with a large enough effect; inconclusive = small, poorly fitted or top-dose-only effect, or another doubt; inactive = no such curve, though single readings can be large or run the other way.
Select the matching outcome among 1.0 for active, 0.0 for inactive

Just curious, what result did CN1CCc2ccccc2Cc2[nH]c3ccccc3c2CC1 get here?
0.0

Lab log entry: O=[N+]([O-])c1ccc(CSc2ncnc3c2ncn3[C@@H]2O[C@H](CO)[C@@H](O)[C@H]2O)cc1 — outcome as called in the assay?
0.0

// return assay outcome for N=C(N)SCCc1ccc(CCSC(=N)N)cc1
0.0

For Fc1ccc(C(OCCCc2cnc[nH]2)c2ccc(F)cc2)cc1 , what call appears in the results of this test?
0.0

// param item: CCCC1(C)C(C#N)(C#N)C1(C#N)C#N ; yields the recorded call
0.0

Assay result, entry NO — outcome?
1.0

Fill in: this test's call for CC(C)CC(NP(=O)(O)O[C@@H]1O[C@@H](C)[C@H](O)[C@@H](O)[C@H]1O)C(=O)NC(Cc1c[nH]c2ccccc12)C(=O)O (stereo partly drawn) is ___
0.0

Tell me the recorded outcome of this test for NCCCS(=O)(=O)O .
0.0

For this compound, state the assay outcome: CCC1C(=O)OCC1Cc1cncn1C (stereo not drawn)
0.0

What did the test return for CCN(CC)c1ncnc2c1ncn2[C@@H]1O[C@H](COP(=O)(O)OP(=O)(O)C(Br)(Br)P(=O)(O)O)[C@@H](O)[C@H]1O ?
0.0

Call for entry CCCCCCCC/C=C\CCCCCCCC(=O)NCCO :
0.0

Given OCC1O[C@H](O)C(Cl)C(O)C1O (stereo partly drawn) , state the outcome it received in this test.
0.0

Query: recorded result category for NC(=O)C(=O)O in this test
0.0

What is the recorded call for this compound in the test? CN=c1nc(-c2ccccc2)n(-c2ccccc2)s1
0.0

Check the results log: what was the call for CN1CCc2cc(O)c(O)cc2C(c2ccccc2)C1 (stereo not drawn) ?
0.0

Outcome logged for C=CC(N)CCC(=O)O (stereo not drawn) in this assay:
0.0

Per the records of this test, what outcome belongs to CN(C)C(N)=NCCC[C@H](N)C(=O)O ?
0.0

Assay outcome for CCCCCCCCCCCCCCCCCC(=O)OC(CC(=O)O)C[N+](C)(C)C (stereo not drawn) : what was it?
0.0

Fill in: this test's call for O=S(=O)(c1cccc2c(I)cccc12)N1CCCNCC1 is ___
0.0

How did this test come out for O=C(O)/C=C/C(O)c1ccc(Cl)cc1 (stereo not drawn) ?
0.0

Any idea what this test logged for CN1C2CC(OC(=O)[C@H](CO)c3ccccc3)CC1C1OC12 (stereo partly drawn) ?
0.0

State the result this test recorded for O=C(c1ccc(Cl)cc1)N1CCN(c2ccc([N+](=O)[O-])c3ncccc23)CC1 .
0.0

What did this assay record as the result for Brc1c(Br)c(Br)c2n[nH]nc2c1Br ?
0.0
